# Test system: M14 melanoma
# assay_notes: NCI tumour cell line growth inhibition, 48 h
Tag: Yes if measured TGI is not below 3 µM, No if it is.

Query: # check: TGI of O=[N+]([O-])CC(SCc1ccccc1)c1ccc2c(c1)OCO2 (stereo not given) is greater than or equal to 3 µM
Response: Yes

Query: Reported TGI at or above 3 µM? `COc1ccc(C(=O)N2CCN(c3ccc4c(c3)OCC(=O)N4)CC2)cc1`
Response: Yes

Query: Hi, just wondering whether `CN1CCN(c2ccc(-c3cnc4c(-c5csc6ccccc56)cnn4c3)cc2)CC1` shows TGI of 3 µM or higher.
Response: Yes

Query: Does TGI meet or surpass 3 µM for N#CC1C(=O)Nc2sc(C(=O)c3ccc(Br)cc3)c(N)c2C12CCCCC2 (stereo not given) ?
Response: Yes

Query: For this compound, is measured TGI 3 µM or higher? `COc1cc2c3c(n(CCN)c(=O)c2cc1OC)-c1cc2c(cc1C3=O)OCO2`
Response: No

Query: Confirm if TGI reported for the compound `Cc1ccc(NC(=O)CC(=O)n2nc(-c3ccccc3)c(N=Nc3ccc(Cl)cc3)c2-c2ccccc2)cc1` is 3 µM or above.
Response: Yes

Query: Is it the case that `O=C(O)Cc1ccc(N2N=C(c3ccccc3)CC2=O)cc1` has TGI reaching or exceeding 3 µM?
Response: Yes

Query: Form field: TGI at least 3 µM? Entry: `CCCCCCOc1ccc(NC2=C(Cl)C(=O)c3cccnc3C2=O)cc1`
Response: No

Query: Is TGI for `CCN1/C(=C/c2ccc3ccccc3[n+]2CC)C=Cc2ccccc21` at or above 3 µM?
Response: Yes

Query: Does the compound `Oc1[nH]c2ccccc2c1N=NC1=NCCCCN1` have recorded TGI that is 3 µM or more?
Response: Yes

###

# Test system: SNB-78 CNS
# assay_notes: NCI tumour cell line growth inhibition, 48 h
readout_type: TGI

Query: Report TGI, nothing else, for this compound: `NC(=O)N/N=C(\Cc1nc2ccc(C(=O)c3ccccc3)cc2[nH]c1=O)C(=O)Nc1ccc(Br)cc1`
Response: > 100 µM

Query: Input `Cc1ccc(NC(=O)CC(=O)n2nc(-c3ccccc3)c(N=Nc3ccc(Cl)cc3)c2-c2ccccc2)cc1` , output reported TGI.
Response: > 100 µM

Query: For the compound `COc1cc(-c2oc3c(OC)c(OC)cc(O)c3c(=O)c2OC)ccc1O` , report TGI.
Response: > 100 µM

Query: Give the value of TGI reported for the following: `CN(C)c1ccc(/C=C2\CNC/C(=C\c3ccc(N(C)C)cc3)C2=O)cc1`
Response: > 100 µM

Query: Using known records, supply TGI for Nc1nc2c(ncn2CCOC(c2ccccc2)P(=O)(O)O)c(=O)[nH]1 (stereo not given)
Response: > 100 µM

###

# Tested on: MDA-MB-435
# assay_notes: NCI tumour cell line growth inhibition, 48 h
Answer NOT MET if TGI is under 4 µM, and MET if it is 4 µM or more.

Query: Dear colleague, could you confirm whether `O=c1c2cc(Br)ccc2oc2nc3n(c(=O)c12)CCCS3` has TGI at or above 4 µM?
Response: MET

Query: State whether the measured TGI reaches 4 µM, counting equality as reaching it, for NCCNCC(O)CO (stereo unspecified)
Response: MET

Query: Does TGI meet or surpass 4 µM for `Nc1ccn([C@H]2C[C@@H](O)[C@@H](CO)S2)c(=O)n1` ?
Response: MET

Query: Exam item: decide whether the reported TGI for Nc1nc2c(c3ncccc13)C(c1cccc(Cl)c1)Cc1ncccc1-2 (stereo unspecified) is at least 4 µM.
Response: NOT MET

Query: Assess whether reported TGI for `Cc1cc2c(cc1O)CC[C@@H]1[C@@H]2CC[C@]2(C)[C@@H](O)CC[C@@H]12` sits at 4 µM or higher.
Response: NOT MET

Query: Assess whether reported TGI for `CN1CCN(CC(=O)Nc2ccc3ncnc(Nc4ccc(Oc5cccc(C(F)(F)F)c5)c(Cl)c4)c3c2)CC1` sits at 4 µM or higher.
Response: NOT MET

Query: Threshold query (TGI >= 4 µM) on `Cc1ccc(/C=C2\NC(=S)N(CN3CCOCC3)C2=O)cc1`
Response: MET

Query: Quick check: does CCC(=O)OC1CCn2c1nc1c2C(=O)C(C)=C(N2CC2)C1=O (stereo unspecified) have TGI greater than or equal to 4 µM?
Response: NOT MET

Query: // inclusive: TGI at least 4 µM? input: `Cc1cc(C)c2c(n1)S(=O)(=O)N(CCCN1CCN(c3cccc(C(F)(F)F)c3)CC1)/C(=C(\O)c1ccccc1)C2=O`
Response: MET

Query: Form field: TGI at least 4 µM? Entry: C[n+]1c2ccccc2c(CNC(CCC(N)=O)C(=O)O)c2ccccc21 (stereo unspecified)
Response: MET

Query: Entry O=C1CC(Br)c2c(Cl)sc(Cl)c21 (stereo unspecified) : is its TGI no less than 4 µM?
Response: MET

###

For each of the molecules below, state its TGI.
# System: SK-MEL-28 melanoma
# assay_notes: NCI tumour cell line growth inhibition, 48 h

Query: Name the recorded TGI of the item CCOP(=O)(CC(=O)C1=C(O)C(CCCNC(=O)OC(C)(C)C)N(Cc2ccc(OC)c(OC)c2)C1=O)OCC (centres undefined) in your answer.
Response: > 100 µM

Query: Respond only with TGI recorded for `C(CCc1nnc2c(n1)CCCC2)Cc1nnc2c(n1)CCCC2`
Response: > 100 µM

Query: Provide measured TGI value, entry: `COc1ccc2nc(NCCCNCCO)c3sc4ccc(F)cc4c(=O)c3c2c1`
Response: 3.21 µM

Query: Retrieve TGI measured for `C=CCN1C(=O)/C(=C/c2ccc(C)cc2)N=C1SC/C=C/C` and print it.
Response: > 100 µM

Query: State its TGI for this molecule: `Cc1ccc(NS(=O)(=O)c2cc(C(C)(C)C)ccc2OCCOCCOCCOc2ccc(C(C)(C)C)cc2S(=O)(=O)Nc2ccc(C)cc2)cc1`
Response: > 100 µM

Query: Query TGI for NC1=NC(c2ccccc2)N=C(Nc2ccccc2)N1 (centres undefined)
Response: > 100 µM

Query: Using the record for `CC(C)(C)OC(=O)NCCCCCCCCn1c2c(c3ccccc3c1=O)C(=O)c1ccccc1-2` , state its measured TGI.
Response: > 50 µM

Query: Answer with the recorded TGI of CCc1cccc(C(C)C)c1NC(=O)C(=O)C(C(=O)C(=O)OC)c1nc2ccccc2[nH]c1=O (centres undefined) only.
Response: > 100 µM

Query: Specify reported TGI for the molecule shown: `CC(C)(C)c1cc(-c2ccc(-c3cc(C(C)(C)C)c(O)c(C(C)(C)C)c3)cc2)cc(C(C)(C)C)c1O`
Response: > 100 µM

###

# Tested on: SK-MEL-5 melanoma
# assay_notes: NCI tumour cell line growth inhibition, 48 h
Would you kindly list TGI for each of these molecules?
Please state the figure in µM; there is no need to write the unit.

Query: Recall and state the measured TGI for CC(=O)OCC1OC(OC2CC3C(C)(C)C(OC(C)=O)CC[C@]3(C)C3CCC45CC4(CC[C@H]5C(C)CC(O)C4OC4(C)C)[C@]23C)C(O)C(O)C1O (some centres undefined) .
Response: 5.79

Query: For Nc1nc2c(c3ncccc13)C(c1cccc(Cl)c1)Cc1ncccc1-2 (centres undefined) , write its TGI.
Response: 14.7

Query: Quickly give me recorded TGI for `[Cl-].[Rh+3].c1ccc(-c2ccnc3c2ccc2c(-c4ccccc4)ccnc23)cc1.c1ccc(-c2ccnc3c2ccc2c(-c4ccccc4)ccnc23)cc1.c1ccc(-c2ccnc3c2ccc2c(-c4ccccc4)ccnc23)cc1`
Response: 50.3

Query: Supply measured TGI of `COC(=O)NCCc1[nH]nc2c1C(=O)C=C(OC)C2=O` in your reply.
Response: 28.9

###

Answer each item with its documented TGI.
# Test system: SK-MEL-5 melanoma
# assay_notes: NCI tumour cell line growth inhibition, 48 h
Form entry: value (µM) — number only.

Query: Fill in TGI for record `COC(=O)[C@]12CC[C@@H](C)[C@H](C)[C@@H]1C1=CC[C@@H]3[C@@]4(C)C(C=O)=C[C@@](C)(COC(C)=O)[C@@H]4[C@H](O)C[C@@]3(C)[C@]1(C)CC2`
Response: 3.19

Query: Give the reported TGI for this molecule. `COc1cc2c3c(n(CCCN)c(=O)c2cc1OC)-c1ccc(F)cc1C3=O`
Response: 6.06

###

# Test system: MALME-3M melanoma
# assay_notes: NCI tumour cell line growth inhibition, 48 h; in the data active = GI50 below about 0.43 µM; inactive = the rest
Assign a class; possible classes are class 1 (active), class 0 (inactive)

Query: Hello, I am checking results. What call was entered for `Nc1ccn([C@H]2C[C@@H](O)[C@@H](CO)S2)c(=O)n1` ?
Response: class 0

Query: Outcome logged for `COC(=O)c1c2c(c(C)[n+]([O-])c1C)C(=O)C=C(NCc1cccc(OC)c1)C2=O` in this assay:
Response: class 1

Query: Each molecule tested received a call. Report the one for `COC(=O)c1ccc(=O)c2nc3/c(=C/O)c(O)cc(=O)c3[nH]c12` .
Response: class 0

Query: GET /call?item= `COc1ccc(-c2cnc(-c3ccc(F)cc3)[nH]2)cc1` returns the recorded outcome of this test.
Response: class 0

Query: // param item: `COc1ccc2cc(C(=O)/C=C/c3cccc(Cl)c3Cl)ccc2c1` ; yields the recorded call
Response: class 0

Query: Called result for `Cc1ccc(S(=O)(=O)Oc2ccc3c4c(c(=O)oc3c2)CCCCC4)cc1`
Response: class 0

Query: Could you check what this test reported for `COC(=O)[C@]12CC[C@@H](C)[C@H](C)[C@@H]1C1=CC[C@@H]3[C@@]4(C)C(C=O)=C[C@@](C)(COC(C)=O)[C@@H]4[C@H](O)C[C@@]3(C)[C@]1(C)CC2` ?
Response: class 0

Query: // outcome(item) with item = CS(=O)(=O)N1CCN(Cc2cc3nc(-c4cccc5[nH]ncc45)nc(N4CCOCC4)c3s2)CC1 (tested in a mixture with another compound)
Response: class 1

Query: # lookup: test call for `COc1cc2c3c(n(CCCN4CCN(C)CC4)c(=O)c2cc1OC)-c1cc2c(cc1C3=O)OCO2`
Response: class 0

Query: // param item: `O=C(Nc1cnn2ccc(N3CCC[C@@H]3c3cc(F)ccc3F)nc12)N1CC[C@H](O)C1` ; yields the recorded call
Response: class 0

Query: Please indicate how the test categorized `COc1ncc(-c2nc3c(n2C(C)C)[C@H](c2ccc(Cl)cc2)N(c2cc(Cl)cn(C)c2=O)C3=O)c(OC)n1` .
Response: class 0
